Reported fluorescence index values are given for each entry in this list.
Molecular target: T1, class I MHC receptor HLA-A2 on T2 cells (human)
T1 construct: detected on the cell surface with a mouse anti-human HLA-A2 monoclonal antibody and goat anti-mouse IgG F(ab')2-FITC; also called HLA-A2 receptor; HLA-A2 class I MHC
Experiment: T2 cells, anti-HLA-A2 flow cytometry after brefeldin A; Assay #2; 2 hr
quantityKind: fluorescence index (F.I.)

binder="GLAPLEVRV [Filamin B peptide #3]" obsvalue=3.33
binder="LILGLVWTL [Filamin B peptide #1]" obsvalue=2.17
binder="KLILGLVWT [Filamin B peptide #7]" obsvalue=1.07
binder="SLQESGLKV [Filamin B peptide #4]" obsvalue=1.37
binder="GQGDVMVFV [Filamin B peptide #6]" obsvalue=1.6
